// provenance: patent US9796672B2

Consider the following compounds and their measured pIC50 readings.
target: UniProt Q12809; test: In vitro toxicity, hERG inhibition; type: biochemical
Sequence (Q12809 whole entry): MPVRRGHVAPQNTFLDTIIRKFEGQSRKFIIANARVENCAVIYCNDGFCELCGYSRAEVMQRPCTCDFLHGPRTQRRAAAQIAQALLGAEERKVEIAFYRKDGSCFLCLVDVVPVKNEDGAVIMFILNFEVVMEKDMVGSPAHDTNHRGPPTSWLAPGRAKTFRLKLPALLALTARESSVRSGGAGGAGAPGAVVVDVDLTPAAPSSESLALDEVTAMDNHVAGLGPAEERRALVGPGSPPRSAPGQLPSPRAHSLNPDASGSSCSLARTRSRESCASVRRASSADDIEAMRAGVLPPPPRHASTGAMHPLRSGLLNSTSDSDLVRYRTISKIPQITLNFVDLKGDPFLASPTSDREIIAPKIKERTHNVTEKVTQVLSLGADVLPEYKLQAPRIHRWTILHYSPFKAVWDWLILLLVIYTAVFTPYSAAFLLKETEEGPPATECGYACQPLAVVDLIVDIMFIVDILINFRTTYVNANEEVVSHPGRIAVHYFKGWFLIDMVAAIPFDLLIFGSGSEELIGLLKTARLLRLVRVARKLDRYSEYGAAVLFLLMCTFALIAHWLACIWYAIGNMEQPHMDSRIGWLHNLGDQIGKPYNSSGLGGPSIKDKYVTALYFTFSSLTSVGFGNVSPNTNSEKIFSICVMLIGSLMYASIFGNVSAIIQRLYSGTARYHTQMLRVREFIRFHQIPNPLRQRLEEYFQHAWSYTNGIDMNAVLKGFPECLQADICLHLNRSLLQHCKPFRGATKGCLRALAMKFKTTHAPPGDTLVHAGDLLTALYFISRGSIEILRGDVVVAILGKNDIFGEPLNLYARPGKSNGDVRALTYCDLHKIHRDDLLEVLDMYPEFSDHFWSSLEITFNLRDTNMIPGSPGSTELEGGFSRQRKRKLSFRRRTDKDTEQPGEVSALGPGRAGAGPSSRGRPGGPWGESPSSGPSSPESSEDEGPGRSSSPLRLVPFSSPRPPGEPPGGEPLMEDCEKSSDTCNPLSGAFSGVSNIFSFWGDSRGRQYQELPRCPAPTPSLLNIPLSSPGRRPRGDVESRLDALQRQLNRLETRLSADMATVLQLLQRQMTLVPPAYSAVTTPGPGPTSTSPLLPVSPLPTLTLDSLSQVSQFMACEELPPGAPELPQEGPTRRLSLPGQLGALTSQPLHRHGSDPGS
Remember the convention: pIC50 equals -log10 of concentration in molar.

Worked cases, pIC50 given:
COc1cc2c(cc1OC)CN([C@@H](C)CCc1ccc(Cl)c(Cl)c1)C2	6.18
COc1cc(CCC(C)(C)N2Cc3cccc(C(=O)N4CCN(C(C)=O)CC4)c3C2)ccc1O	5.00

Turning now to a further compound:
Ask: // returns reported pIC50 for input CC(C)Oc1cc(CC[C@@H](C)N2Cc3ccc(S(C)(=O)=O)cc3C2)ccc1O
Result: 5.02

* * *

target: Sigma-1 receptor; assay: Sigma-1 receptor competitive radioligand binding assay; details: read-out: Sigma-1 Receptor Affinity, Ki
// assign 1 (yes) if Ki falls strictly below 60 nM, else 0 (no) (ties count as 0 (no))

Completed entries (count: 4):
CC(C)(C)Oc1cc(CCC(C)(C)N2Cc3cccc(C(=O)O)c3C2)ccc1O [compound 75]	0 (no)
CC(C)(CCc1ccc(O)c(OC(F)(F)F)c1)N1Cc2c(F)ccc(F)c2C1 [compound 55]	0 (no)
CC(C)(C)Oc1cc(CCC(C)(C)N2Cc3cccc(S(C)(=O)=O)c3C2)ccc1O [compound 66]	0 (no)
CN(C)C(=O)c1cccc2c1CN(C(C)(C)CCc1ccc(O)c(OC(C)(C)C)c1)C2 [compound 59]	0 (no)

Ask: Determine whether this molecule shows Ki lower than 60 nM (ties excluded): CC(C)Oc1cc(CC[C@@H](C)N2Cc3cc4c(cc3C2)OCO4)ccc1O [compound 25]
Result: 1 (yes)

Ask: Determine whether this molecule shows Ki lower than 60 nM (ties excluded): C[C@H](CCc1ccc(F)cc1)N1Cc2cccc(F)c2C1 [compound 21]
Result: 0 (no)
